Provide the recorded MIC for the entries that follow.
Tested on: Staphylococcus aureus
protocol_summary: Antibacterial activity against methicillin-resistant Staphylococcus aureus 86 assessed as bacterial growth inhibition in presence of 50 ug/ml calcium ions by CLSI protocol based broth microdilution method
Format: functional

Qu. Report MIC for CCCCCCCCCC(=O)N[C@@H](Cc1c[nH]c2ccccc12)C(=O)N[C@@H](CC(N)=O)C(=O)N[C@@H](CC(=O)O)C(=O)N[C@@H]1C(=O)NCC(=O)N[C@@H](CCCCN)C(=O)N[C@@H](CC(=O)O)C(=O)N[C@H](C)C(=O)N[C@@H](CC(=O)O)C(=O)NCC(=O)N[C@H](CO)C(=O)N[C@@H]([C@@H](C)CC(=O)O)C(=O)N[C@@H](CC(=O)c2ccccc2N)C(=O)O[C@@H]1C
Ans. 1 µg/mL

Qu. Report MIC for CCCCCCCCCC(=O)N[C@@H](C)C(=O)N[C@@H](CC(N)=O)C(=O)N[C@@H](CC(=O)O)C(=O)N[C@@H]1C(=O)NCC(=O)N[C@@H](CCCN)C(=O)N[C@@H](CC(=O)O)C(=O)N[C@H](C)C(=O)N[C@@H](CC(=O)O)C(=O)NCC(=O)N[C@H](CO)C(=O)N[C@@H]([C@@H](C)CC(=O)O)C(=O)N[C@@H](CC(=O)c2ccccc2N)C(=O)O[C@@H]1C
Ans. ≥ 32 µg/mL

Qu. Report MIC for CCCCCCCCCC(=O)N[C@@H](Cc1c[nH]c2ccccc12)C(=O)N[C@H](CC(N)=O)C(=O)N[C@@H](CC(=O)O)C(=O)N[C@@H]1C(=O)NCC(=O)N[C@@H](CCCN)C(=O)N[C@@H](CC(=O)O)C(=O)N[C@H](C)C(=O)N[C@@H](CC(=O)O)C(=O)NCC(=O)N[C@H](CO)C(=O)N[C@@H]([C@H](C)CC(=O)O)C(=O)N[C@@H](CC(=O)c2ccccc2N)C(=O)O[C@@H]1C
Ans. 0.5 µg/mL

Qu. Report MIC for CCCCCCCCCC(=O)N[C@@H](Cc1c[nH]c2ccccc12)C(=O)N[C@@H](CC(N)=O)C(=O)N[C@@H](CC(=O)O)C(=O)N[C@@H]1C(=O)NCC(=O)N[C@@H](CCCN)C(=O)N[C@@H](CC(=O)O)C(=O)N[C@H](C)C(=O)N[C@@H](C(C)CC(=O)O)C(=O)NCC(=O)N[C@H](CO)C(=O)N[C@@H](C(C)CC(=O)O)C(=O)N[C@@H](CC(=O)c2ccccc2N)C(=O)O[C@@H]1C (single isomer, unassigned)
Ans. ≥ 32 µg/mL

Qu. Report MIC for CCCCCCCCCC(=O)N[C@@H](Cc1c[nH]c2ccccc12)C(=O)N[C@@H](CC(N)=O)C(=O)N[C@@H](CC(=O)O)C(=O)N[C@@H]1C(=O)NCC(=O)N2CCC[C@H]2C(=O)N[C@@H](CC(=O)O)C(=O)N[C@H](C)C(=O)N[C@@H](CC(=O)O)C(=O)NCC(=O)N[C@H](CO)C(=O)N[C@@H]([C@@H](C)CC(=O)O)C(=O)N[C@@H](CC(=O)c2ccccc2N)C(=O)O[C@@H]1C
Ans. ≥ 32 µg/mL

Qu. Report MIC for CCCCCCCCCC(=O)N[C@@H](Cc1c[nH]c2ccccc12)C(=O)N[C@@H](CC(N)=O)C(=O)N[C@@H](CC(=O)O)C(=O)N[C@@H]1C(=O)NCC(=O)N[C@@H](CCSC)C(=O)N[C@@H](CC(=O)O)C(=O)N[C@H](C)C(=O)N[C@@H](CC(=O)O)C(=O)NCC(=O)N[C@H](CO)C(=O)N[C@@H]([C@@H](C)CC(=O)O)C(=O)N[C@@H](CC(=O)c2ccccc2N)C(=O)O[C@@H]1C
Ans. ≥ 32 µg/mL

Qu. Report MIC for CCCCCCCCCC(=O)N[C@@H](Cc1c[nH]c2ccccc12)C(=O)N[C@@H](C)C(=O)N[C@@H](CC(=O)O)C(=O)N[C@@H]1C(=O)NCC(=O)N[C@@H](CCCN)C(=O)N[C@@H](CC(=O)O)C(=O)N[C@H](C)C(=O)N[C@@H](CC(=O)O)C(=O)NCC(=O)N[C@H](CO)C(=O)N[C@@H]([C@@H](C)CC(=O)O)C(=O)N[C@@H](CC(=O)c2ccccc2N)C(=O)O[C@@H]1C
Ans. ≥ 32 µg/mL

Qu. Report MIC for CCCCCCCCCC(=O)N[C@@H](Cc1ccc2ccccc2c1)C(=O)N[C@@H](CC(N)=O)C(=O)N[C@@H](CC(=O)O)C(=O)N[C@@H]1C(=O)NCC(=O)N[C@@H](CCCN)C(=O)N[C@@H](CC(=O)O)C(=O)N[C@H](C)C(=O)N[C@@H](CC(=O)O)C(=O)NCC(=O)N[C@H](CO)C(=O)N[C@@H]([C@@H](C)CC(=O)O)C(=O)N[C@@H](CC(=O)c2ccccc2N)C(=O)O[C@@H]1C
Ans. 0.06 µg/mL

Qu. Report MIC for CCCCCCCCCC(=O)N[C@@H](Cc1c[nH]c2ccccc12)C(=O)N[C@@H](CC(N)=O)C(=O)N[C@@H](CC(=O)O)C(=O)N[C@@H]1C(=O)NCC(=O)N[C@@H](CCCN)C(=O)N[C@@H](CC(=O)O)C(=O)N[C@H](C)C(=O)N[C@@H](CC(N)=O)C(=O)NCC(=O)N[C@H](CO)C(=O)N[C@@H]([C@@H](C)CC(=O)O)C(=O)N[C@@H](CC(=O)c2ccccc2N)C(=O)O[C@@H]1C
Ans. 32 µg/mL

Qu. Report MIC for CCCCCCCCCC(=O)N[C@@H](Cc1c[nH]c2ccccc12)C(=O)N[C@@H](CC(N)=O)C(=O)N[C@@H](CC(=O)O)C(=O)N[C@@H]1C(=O)NCC(=O)N[C@@H](CCCN)C(=O)N[C@@H](CC(=O)O)C(=O)N[C@H](C)C(=O)N[C@@H](CC(=O)O)C(=O)NCC(=O)N[C@H](CO)C(=O)N[C@@H]([C@@H](C)CC(=O)O)C(=O)N[C@@H](C)C(=O)O[C@@H]1C
Ans. ≥ 32 µg/mL

Qu. Report MIC for C#Cc1ccc(C(=O)N[C@@H](Cc2c[nH]c3ccccc23)C(=O)N[C@@H](CC(N)=O)C(=O)N[C@@H](CC(=O)O)C(=O)N[C@@H]2C(=O)NCC(=O)N[C@@H](CCCN)C(=O)N[C@@H](CC(=O)O)C(=O)N[C@H](C)C(=O)N[C@@H](CC(=O)O)C(=O)NCC(=O)N[C@H](CO)C(=O)N[C@@H]([C@@H](C)CC(=O)O)C(=O)N[C@@H](CC(=O)c3ccccc3N)C(=O)O[C@@H]2C)cc1
Ans. ≥ 32 µg/mL
